# ASSAY_OVERVIEW: Pharmacokinetic evaluation following a single oral and intravenous administration
# Type: in vivo, CD1 mouse
# APPLIED_CONDITIONS: CD1, mouse, plasma, po, 5 mg/kg, Table 11, PO Dose: 5 mg/kg, 2 h, mean; read-out: Concentration, Mean
READOUT_LABEL: concentration at 2 h (ng/mL)
Return type: number; implicit unit ng/mL.

Quick note, concentration at 2 h for CC(=O)N[C@@H](Cc1ccc(CN(C)C)cc1)c1nnc(-c2cccc(OC(F)(F)F)c2)s1 [Compound 42320] landed at 123

###

# ASSAY_OVERVIEW: Pharmacokinetic evaluation following a single oral and intravenous administration
# Format: in vivo, CD1 mouse
# APPLIED_CONDITIONS: CD1, mouse, plasma, iv, 1 mg/kg, Table 4, IV Dose: 1 mg/kg, Mouse 1; read-out: AUCInf
READOUT_LABEL: AUC(0-inf) (ng·h/mL)
Return type: number; implicit unit ng·h/mL.

Quick note, AUC(0-inf) for CNCc1ccc(C[C@H](NC(C)=O)c2nnc(-c3cccc(OC(F)(F)F)c3)s2)cc1 [Compound 42140] landed at 557
